# Target of assay: Voltage-gated potassium channel subunit beta-2 (Rattus norvegicus)
# Protocol notes: enhancers of rat Kvbeta2 NADPH turnover – biochemical, NADPH fluorescence, primary screen (AID 623);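 further: fluorescence intensity change per second fitted from 20 to 320 s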
# Conditions: Recombinant KvBeta, NADPH fluorescence decrease slope, 10 min; at 10 µM; hits give low values
Each record here notes measured NADPH fluorescence slope.
Keep the answer to the number alone.

Example cases with answers are listed next.
{"Compound": "COC(=O)C1C(=O)C2=C(CC1C)NC(=O)CC2c1ccccc1 (stereo not drawn)", "NADPH fluorescence slope": "-4.9e-05"}
{"Compound": "Cn1c(=O)cc(OCC(=O)NCCCN2CCN(Cc3ccccc3)CC2)c2ccccc21", "NADPH fluorescence slope": "2.6e-05"}
{"Compound": "COc1ccc(N2C(=O)c3cccc4cccc(c34)C2=O)nn1", "NADPH fluorescence slope": "-2.8e-05"}
{"Compound": "O=C(CN1CCN(c2ccc(F)cc2)CC1)OCc1ccccc1", "NADPH fluorescence slope": "-6.7e-05"}

Provide the documented NADPH fluorescence slope with Voltage-gated potassium channel subunit beta-2 (Rattus norvegicus) as the system for CC1(C)NC(=O)N(CC(O)CN(Cc2ccccc2)Cc2ccccc2)C1=O (stereo not drawn)
-4e-05

Hello, the source for this data is PubChem BioAssay, in case you need it.
